Assay: human bioavailability comparison study, Tablet Formulation 10 vs co-administered single entity products
Format: in vivo
Settings: human, plasma, oral, Treatment C: one unit Tablet Formulation 10b (300 mg Compound I, 100 mg Compound II, 50 mg Compound III); human plasma, fasted; read-out: AUC0-last GM
measurementKind: AUC(0-t) (µM·h)
Write down the numeric answer in µM·h and omit the unit.

# compound, readoutUnits, measuredNumber
measured = [
    ("COC(=O)N[C@H](C(=O)N1CCC[C@H]1c1nc(-c2ccc3c(c2)O[C@@H](c2ccccc2)n2c-3cc3cc(-c4c[nH]c([C@@H]5CCCN5C(=O)[C@@H](NC(=O)OC)C(C)C)n4)ccc32)c[nH]1)C(C)C [Compound II]", "µM·h", 1.83),
]

As a next step, examine the compound that follows.
Query: AUC(0-t); subject: C=C[C@@H]1C[C@]1(NC(=O)[C@@H]1C[C@@H]2CN1C(=O)[C@H](C(C)(C)C)NC(=O)O[C@@H]1C[C@H]1CCCCCc1nc3ccc(OC)cc3nc1O2)C(=O)NS(=O)(=O)C1CC1 [Compound III, hydrate]
0.33

---

Assay: human bioavailability comparison study, Tablet Formulation 9 vs co-administered single entity products
Assay type: in vivo
Conditions: Treatment C: two units Tablet Formulation 9b; human plasma, fasted
measurementKind: Cmax

Returns the measured Cmax for the input compound. Input: COC(=O)N[C@H](C(=O)N1CCC[C@H]1c1nc(-c2ccc3c(c2)O[C@@H](c2ccccc2)n2c-3cc3cc(-c4c[nH]c([C@@H]5CCCN5C(=O)[C@@H](NC(=O)OC)C(C)C)n4)ccc32)c[nH]1)C(C)C [Compound II]
115 nM

---

Item-by-item account of AUC(0-inf)
Test: human bioavailability comparison study, Tablet Formulation 10 vs co-administered single entity products
Format: in vivo
Conditions: human, plasma, oral, Treatment B: one unit Tablet Formulation 10a; human plasma, fasted
The figure you give is taken to be in µM·h; do not add the unit.

# compound, measuredNumber
records = [
    ("C=C[C@@H]1C[C@]1(NC(=O)[C@@H]1C[C@@H]2CN1C(=O)[C@H](C(C)(C)C)NC(=O)O[C@@H]1C[C@H]1CCCCCc1nc3ccc(OC)cc3nc1O2)C(=O)NS(=O)(=O)C1CC1 [Compound III, hydrate]", 0.34),
]

# context switch: different compound, same AUC(0-inf)
Please look up its AUC(0-inf): COC(=O)N[C@H](C(=O)N1CCC[C@H]1c1nc(-c2ccc3c(c2)O[C@@H](c2ccccc2)n2c-3cc3cc(-c4c[nH]c([C@@H]5CCCN5C(=O)[C@@H](NC(=O)OC)C(C)C)n4)ccc32)c[nH]1)C(C)C
1.58

---

Experiment: human bioavailability comparison study, Tablet Formulation 10 vs co-administered single entity products
Format: in vivo
Settings: human, in vivo, Treatment C: one unit Tablet Formulation 10b; human plasma, fasted
measurementKind: Cmax (nM)
Lab book: enter the figure in nM, no units written.

Quick one: Cmax for CC(C)OC(=O)[C@@H](C)NP(=O)(OC[C@H]1O[C@@H](n2ccc(=O)[nH]c2=O)[C@](C)(Cl)[C@@H]1O)Oc1ccccc1 (stereo partly shown) [Compound I] ?
618

---

Assay: human bioavailability comparison study, Tablet Formulation 9 vs co-administered single entity products
Assay type: in vivo
Conditions: human, in vivo, Treatment B: two units Tablet Formulation 9a; human plasma, fasted
measurementKind: AUC(0-inf) (µM·h)
Report only the number, with the unit µM·h understood.

Any idea what AUC(0-inf) was measured for CC(C)OC(=O)[C@@H](C)NP(=O)(OC[C@H]1O[C@@H](n2ccc(=O)[nH]c2=O)[C@](C)(Cl)[C@@H]1O)Oc1ccccc1 (stereo partly shown) ?
3.2
